# Test system: zebrafish embryos
# CONDITION CONTEXT: 5μM through 120 hpf, malformation rate
PROPERTY MEASURED: spinal curvature, Mean (%)
State the answer as a number, implicitly in %.

> print(dat)
                                   molecule       study.system  assay.result
1  NS(=O)(=O)C(F)(F)C(F)(F)C(F)(F)C(F)(F)C(F)(F)C(F)(F)C(F)(F)C(F)(F)F [compound 60, Perfluorooctanesulfonamide]  zebrafish embryos          0.00
2        OCCCCC(F)(F)C(F)(F)C(F)(F)C(F)(F)F  zebrafish embryos          0.00
3                   NC(O)(C(F)(F)F)C(F)(F)F  zebrafish embryos          0.00
4  NC(=O)C(F)(F)C(F)(F)C(F)(F)C(F)(F)F [compound 19, Nonafluoropentanamide]  zebrafish embryos          0.00
5  O=C(O)C(F)(F)OC(F)(F)C(F)(F)OC(F)(F)C(F)(F)OC(F)(F)C(F)(F)C(F)(F)C(F)(F)F  zebrafish embryos          0.00
6        OCC(F)(F)OC(F)(F)C(F)(F)OC(F)(F)CO  zebrafish embryos          0.00
7  COC(=O)CCC(F)(F)C(F)(F)C(F)(F)C(F)(F)F [compound 39, Methyl 2H,2H,3H,3H-perfluoroheptanoate]  zebrafish embryos          0.00
8  O=C(O)C(F)(F)OC(F)(F)C(F)(F)OC(F)(F)C(=O)O  zebrafish embryos          1.11

Exercise: Report spinal curvature, Mean for `NCC(F)(F)C(F)(F)C(F)(F)C(F)(F)F` tested on zebrafish embryos.
Key: 0.00

Exercise: Now the same for `OCC(F)(F)C(F)(F)C(F)(F)F`
Key: 2.22

Exercise: Now the same for FCOC(C(F)(F)F)C(F)(F)F [compound 3, Sevoflurane, reference compound]
Key: 2.22

Exercise: Now the same for `FC(F)(F)C(F)(F)CNCC(F)(F)C(F)(F)F`
Key: 0.00

Exercise: Now the same for `O=C(O)C=CC(F)(C(F)(F)F)C(F)(F)F`
Key: 0.00

Exercise: Now the same for NC(=O)C(F)(F)C(F)(F)C(F)(F)F [compound 31, Heptafluorobutyramide]
Key: 0.00

Exercise: Now the same for `O=S(=O)(O)C(F)(F)C(F)(F)C(F)(F)C(F)(F)F`
Key: 1.11

====

# Test system: zebrafish embryos
# CONDITION CONTEXT: 5μM through 120 hpf, malformation rate
Listed compounds paired with reported spinal curvature, Mean
State the answer as a number, implicitly in %.

Answered examples (3):
> print(dat)
                                  compound       study.system  assay.result
1  CC(O)C(F)(F)C(F)(F)F (stereo not drawn)  zebrafish embryos          0.00
2              C=CCOC(F)(C(F)(F)F)C(F)(F)F  zebrafish embryos          0.00
3                O=CC(F)(F)C(F)(F)C(F)(F)F  zebrafish embryos          2.22

Exercise: Report spinal curvature, Mean for `OCCC(F)(F)C(F)(F)C(F)(F)C(F)(F)F` tested on zebrafish embryos.
Key: 0.00

Exercise: Now the same for FC(F)(F)COCC(F)(F)F [compound 27, Flurothyl, reference compound]
Key: 0.00

Exercise: Now the same for `O=C(O)C=C(C(F)(F)F)C(F)(F)F`
Key: 3.33
